Cited source: PubChem BioAssay AID258

# Tested on: CD2F1 mice, L1210 leukemia sc, survival T/C
# experimentNotes: NCI In Vivo Anticancer Drug Screen. Data for tumor model L1210 Leukemia (subcutaneous) in CD2F1 (CDF1) mice
# settings: endpoint: median survival time; dose: 16.0 mg/kg/injection; schedule: Q01DX009 (sc); vehicle: saline
Inconclusive results and toxic doses are left out. The calls were made as follows: active = survival T/C of 150% or more; inactive = T/C below 125% in these data.
API: response.call in active, inactive

- compound: "COc1cccc2c1C(=O)c1c(O)c3c(c(O)c1C2=O)C[C@@](O)(C(C)=O)C[C@@H]3OC1CC(N)C(O)C(C)O1 (stereo not given in full)"
  label: "inactive"
- compound: "O=c1[nH]cc(F)c(=O)[nH]1"
  label: "active"
- compound: "CC[C@](O)(C(=O)O)c1cc2n(c(=O)c1CO)Cc1cc3ccccc3nc1-2"
  label: "inactive"
- compound: "Cc1c(N)nc([C@H](CC(N)=O)NC[C@H](N)C(N)=O)nc1C(=O)N[C@H](C(=O)N[C@H](C)[C@@H](O)[C@H](C)C(=O)N[C@H](C(=O)NCCc1nc(-c2nc(C(=O)NCCC[S+](C)C)cs2)cs1)[C@@H](C)O)C(OC1OC(CO)C(O)C(O)C1OC1OC(CO)C(O)C(OC(N)=O)C1O)c1cnc[nH]1 (stereo not given in full)"
  label: "inactive"

Record lookup: outcome of this test for N[C@H](C(=O)O)[C@H]1ON=C(Cl)[C@@H]1O ?
inactive
